- System: MT2
- assay_name: Compound was evaluated for its inhibitory activity against HIV-1-IIIB infected MT2 cells (human T lymphoid cells)
- Assay type: functional, cell-based
pIC50: −log10 of the molar value.
metric: pIC50

>  <compound>
CC[C@H](C)[C@H](NC(=O)[C@H](Cc1ccccc1)CC(O)C[C@@H](Cc1ccccc1)C(=O)N[C@H](C(=O)NCc1nc2ccccc2[nH]1)[C@@H](C)CC)C(=O)NCc1nc2ccccc2[nH]1

>  <metric>
pIC50

>  <op>
=

>  <value_reported>
6.40

$$$$
>  <compound>
COC(=O)[C@H](Cc1ccccc1)NC(=O)[C@H](CC(C)C)NC(=O)[C@H](Cc1ccccc1)CC(O)C[C@@H](Cc1ccccc1)C(=O)N[C@@H](CC(C)C)C(=O)N[C@@H](Cc1ccccc1)C(=O)OC

>  <metric>
pIC50

>  <op>
=

>  <value_reported>
5.64

$$$$
>  <compound>
COC(=O)[C@@H](NC(=O)[C@@H](NC(=O)[C@H](Cc1ccccc1)CC(O)C[C@@H](Cc1ccccc1)C(=O)N[C@H](C(=O)N[C@H](C(=O)OC)C(C)C)C(C)C)C(C)C)C(C)C

>  <metric>
pIC50

>  <op>
=

>  <value_reported>
5.80

$$$$
>  <compound>
CC[C@H](C)[C@H](NC(=O)[C@H](Cc1ccccc1)CC(O)C[C@@H](Cc1ccccc1)C(=O)N[C@H](C(=O)NCCN1CCOCC1)[C@@H](C)CC)C(=O)NCCN1CCOCC1

>  <metric>
pIC50

>  <op>
<

>  <value_reported>
5.00

$$$$
>  <compound>
COC(=O)[C@H](Cc1ccccc1)NC(=O)[C@@H](NC(=O)[C@H](Cc1ccccc1)CC(O)C[C@@H](Cc1ccccc1)C(=O)N[C@H](C(=O)N[C@@H](Cc1ccccc1)C(=O)OC)C(C)C)C(C)C

>  <metric>
pIC50

>  <op>
=

>  <value_reported>
5.62

$$$$
>  <compound>
CC(C)[C@H](NC(=O)[C@H](Cc1ccccc1)CC(O)C[C@@H](Cc1ccccc1)C(=O)N[C@H](C(=O)NCc1nc2ccccc2[nH]1)C(C)C)C(=O)NCc1nc2ccccc2[nH]1

>  <metric>
pIC50

>  <op>
=

>  <value_reported>
5.68

$$$$
>  <compound>
CC[C@H](C)[C@H](NC(=O)[C@H](Cc1ccccc1)CC(O)C[C@@H](Cc1ccccc1)C(=O)N[C@H](C(=O)NCc1ccccn1)[C@@H](C)CC)C(=O)NCc1ccccn1

>  <metric>
pIC50

>  <op>
=

>  <value_reported>
6.30

$$$$
>  <compound>
CC[C@H](C)[C@H](NC(=O)[C@H](Cc1ccccc1)CC(O)C[C@@H](Cc1ccccc1)C(=O)N[C@H](C(=O)NCC1CCc2ccccc2N1)[C@@H](C)CC)C(=O)NCC1CCc2ccccc2N1 (stereo partly drawn)

>  <metric>
pIC50

>  <op>
=

>  <value_reported>
5.12

$$$$

###

- subject_of_test: Human immunodeficiency virus type 1 protease (Human immunodeficiency virus 1, UniProt Q72874)
pKi: −log10 of the molar value.

>  <smiles_code>
CC[C@H](C)[C@H](NC(=O)[C@H](Cc1ccccc1)CC(O)C[C@@H](Cc1ccccc1)C(=O)N[C@H](C(=O)NCc1nc2ccccc2[nH]1)[C@@H](C)CC)C(=O)NCc1nc2ccccc2[nH]1

>  <pKi>
8.46

$$$$

Hey, just so you know, these numbers are from ChEMBL document CHEMBL1149924.
